# Tested on: Klebsiella pneumoniae (KPN) isolates
# assay explanation: MIC of compounds alone and combined with antibacterials, broth microdilution (CLSI)
# Format: cell-based
# particulars: KPN UFR23; AF1 @ 4 μg/mL

{"molecule": "COCC1=C(C(=O)O)N2C(=O)[C@@H](NC(=O)/C(=N\\OC)c3csc(N)n3)[C@H]2SC1 [POD, Cefpodoxime]", "MIC ATB in combination": "<=0.25 μg/mL"}
{"molecule": "C=CC1=C(C(=O)O)N2C(=O)[C@@H](NC(=O)/C(=N\\OCC(=O)O)c3csc(N)n3)[C@H]2SC1 [FIX, Cefixime]", "MIC ATB in combination": "<=0.25 μg/mL"}
{"molecule": "CC(C)(O/N=C(\\C(=O)N[C@@H]1C(=O)N2C(C(=O)[O-])=C(C[n+]3ccccc3)CS[C@H]12)c1csc(N)n1)C(=O)O [CAZ, Ceftazidime]", "MIC ATB in combination": "<=0.25 μg/mL"}

---

# System: Klebsiella pneumoniae (KPN) isolates
# assay explanation: MIC of compounds alone and combined with antibacterials, broth microdilution (CLSI)
# Assay type: cell-based
# particulars: KPN 6299; AF1 @ 4 μg/mL

{"compound": "C=CC1=C(C(=O)O)N2C(=O)[C@@H](NC(=O)/C(=N\\O)c3csc(N)n3)[C@H]2SC1 [CDR, Cefdinir]", "system name": "Klebsiella pneumoniae (KPN) isolates", "MIC ATB in combination": "<=0.25 μg/mL"}
{"compound": "COCC1=C(C(=O)O)N2C(=O)[C@@H](NC(=O)/C(=N\\OC)c3csc(N)n3)[C@H]2SC1 [POD, Cefpodoxime]", "system name": "Klebsiella pneumoniae (KPN) isolates", "MIC ATB in combination": "<=0.25 μg/mL"}
{"compound": "C=CC1=C(C(=O)O)N2C(=O)[C@@H](NC(=O)/C(=N\\OCC(=O)O)c3csc(N)n3)[C@H]2SC1 [FIX, Cefixime]", "system name": "Klebsiella pneumoniae (KPN) isolates", "MIC ATB in combination": "<=0.25 μg/mL"}

---

Below: a set of entries, each annotated with reported MIC ATB in combination.
# System: Escherichia coli (ECO) isolates
# assay explanation: MIC of compounds alone and combined with antibacterials, broth microdilution (CLSI)
# Type: cell-based
# particulars: ECO UFR18; AF1 @ 4 μg/mL

{"smi": "CC(C)(O/N=C(\\C(=O)N[C@@H]1C(=O)N2C(C(=O)[O-])=C(C[n+]3ccccc3)CS[C@H]12)c1csc(N)n1)C(=O)O", "MIC ATB in combination / µg/mL": 1}
{"smi": "C=CC1=C(C(=O)O)N2C(=O)[C@@H](NC(=O)/C(=N\\OCC(=O)O)c3csc(N)n3)[C@H]2SC1", "MIC ATB in combination / µg/mL": 16}
{"smi": "CO/N=C(\\C(=O)N[C@@H]1C(=O)N2C(C(=O)O)=C(COC(N)=O)CS[C@H]12)c1ccco1", "MIC ATB in combination / µg/mL": 32}
{"smi": "C=CC1=C(C(=O)O)N2C(=O)[C@@H](NC(=O)/C(=N\\O)c3csc(N)n3)[C@H]2SC1", "MIC ATB in combination / µg/mL": 4}
{"smi": "COCC1=C(C(=O)O)N2C(=O)[C@@H](NC(=O)/C(=N\\OC)c3csc(N)n3)[C@H]2SC1", "MIC ATB in combination / µg/mL": 8}
